pIC50: −log10 of the molar value.
measured endpoint: pIC50

Req: Write down the reported pIC50 of CO/N=C\c1ccc(O[C@@H]2O[C@H](CO)[C@@H](O)[C@@H](O)[C@H]2O)cc1 , test system: Tyrosinase (Agaricus bisporus, UniProt O42713).
Sequence (O42713 whole entry): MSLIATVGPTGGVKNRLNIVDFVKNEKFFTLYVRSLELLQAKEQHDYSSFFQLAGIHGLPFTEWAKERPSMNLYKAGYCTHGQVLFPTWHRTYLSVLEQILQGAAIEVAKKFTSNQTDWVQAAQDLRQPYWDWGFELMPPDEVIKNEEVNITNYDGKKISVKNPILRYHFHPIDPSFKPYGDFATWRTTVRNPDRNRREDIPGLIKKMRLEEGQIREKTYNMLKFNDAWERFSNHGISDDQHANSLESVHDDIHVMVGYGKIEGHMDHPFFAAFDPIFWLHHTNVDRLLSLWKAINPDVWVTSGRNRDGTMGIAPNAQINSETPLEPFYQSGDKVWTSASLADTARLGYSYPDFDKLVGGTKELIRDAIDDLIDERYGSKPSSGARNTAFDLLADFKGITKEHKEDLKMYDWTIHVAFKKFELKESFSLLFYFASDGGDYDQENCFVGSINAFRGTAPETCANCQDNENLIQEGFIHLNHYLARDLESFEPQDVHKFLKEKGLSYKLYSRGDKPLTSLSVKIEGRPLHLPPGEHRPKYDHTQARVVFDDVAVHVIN
Resp: < 3.70

Req: Write down the reported pIC50 of CO/N=C\c1ccc(O[C@@H]2O[C@H](COC(C)=O)[C@@H](O[C@@H]3O[C@H](COC(C)=O)[C@H](OC(C)=O)[C@H](OC(C)=O)[C@H]3OC(C)=O)[C@H](OC(C)=O)[C@H]2OC(C)=O)cc1 , test system: Tyrosinase (Agaricus bisporus, UniProt O42713).
Resp: < 3.70

Req: Write down the reported pIC50 of CO/N=C\c1ccc(O[C@@H]2O[C@H](CO)[C@@H](O)[C@H](O)[C@H]2O)cc1 , test system: Tyrosinase (Agaricus bisporus, UniProt O42713).
Resp: < 3.70

Entry source: ChEMBL document CHEMBL1156081
